Each item that follows carries a reported apparent KD of MS2 coat protein.
- Test system: MS2 coat protein
- TEST DESCRIPTION: apparent KD of MS2 coat protein; designed switch direction (-1 OFF switch, 1 ON switch): -1; higher = weaker reporter binding
- RECORDED CONDITIONS: Eterna round: R95; input ligand: FMN 200 uM
API: value field is a number in nM; no unit string.

Sample records with apparent KD of MS2 coat protein:
RECORD SEQUENCE | UNITS | RECORDED MEASUREMENT
CGUGACUCAGGAUAUUCAUAAUAUCACAUGAGGAUCACCCAUGUCCAGCGAAAGCUGGAGGGAGAAGGGAGUCACG [Fiskers Ex 5 - 37] (puzzle: Exclusion 5) | nM | 56.7
AAAAGGUCAGGAUAUUCAAGAAAAGAAAAGAAAAGAAAAGAGAAGAAGGGACAUGAGGAUCACCCAUGUAAAAG [Default title] (puzzle: Exclusion 4) | nM | 24.9
AAGUACCGUCACGAUAGUGAUGGUACAACAAGUAGUGAAACAUGAGGAUCACCCAUGUCCUCAAUUGCUCGUCUUAU [Sensor 3 - 81] (puzzle: Sensor v3, turn-off variant 2) | nM | 776
UCUAGCUUUUUGCGUCAAGCAUUGAAGUCUGUUAUCGUUACAUGAGGAUCACCCAUGUUUGUUUUAUGUCGUCUUGA [JR_SV3TOV2_Sub100] (puzzle: Sensor v3, turn-off variant 2) | nM | 19.3
UUUUAGAGAGGAUAUAUAAAGUGAAACAUGAGGAUCACCCAUGUAAUUUUAUGGAUGUAAAUAGAAGGCUCAUUUU [Mat - Exclusion 5 - JL mod - D2] (puzzle: Exclusion 5) | nM | 27.8
AAGAAACAUGAGGAUCACCCAUGUGAGGAUAUGAAAAAGAAAAGAAAAUAAAGAAGAAUCAGAAGGCACAAAGG [Mat - Mod of Hog D3] (puzzle: Exclusion 1) | nM | 37.7

Recorded apparent KD of MS2 coat protein for CUAGUCCGAGGAUAUAUUAUGUGAAACAUGAGGAUCACCCAUGUAAUAUGAUGGAUGUAAAUAGAAGGCGGACUAG [Mat - Exclusion 5 - JL mod - D25] (puzzle: Exclusion 5) , please? 37.9

====

- System: K4 kissing-loop RNA reporter;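 note: bound reporter read as fluorescence of individual clusters on recovered sequencing chips by microscopy, with normalized cluster intensities fitted with a binding model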
- TEST DESCRIPTION: apparent KD of K4 kissing-loop reporter; higher = weaker reporter binding
- RECORDED CONDITIONS: Eterna round: R107; input ligand: none
apparent KD of K4 kissing-loop reporter values, listed per item
Value expressed in nM; do not type the unit.

Here's what some known entries look like.
RECORD SEQUENCE | apparent KD of K4 kissing-loop reporter (nM)
UGUAUGUGUCAGCGAGUGAUGUUCGACGAUACCAGACUCGAUAGAGUCCCUUGGCAGCGUAAUGCAUGCCAAACUGGCACAUACU [#SwitchBubble 13 #K4Early] | 682
CCUAGUCGGAUACUCAAUCCAAUGCGAGAUACCAGCGGUCUUACGCGCCCUUGGCAGCUCAUAAUGAUGAACCAGUGAUGUUGGG [theeternabot_sameState_KL_Theo_A_40] | 397
AGAUGUCUCUGGGAUACCAGUCGGAGUCUCAGGGCUCGGAGUGAUGUUCUGGGAUGUUUCGGCCCUUGGCAGCCCUGGGACUCCC [#2 Exclusion - Theophylline B Attempt #27 (HarryS)] | 649

Fill in the blank: the reported apparent KD of K4 kissing-loop reporter of UAAAUUAAGCUUUGCUGAUUAAUAAGCGAUACCAGCAAAUAAUGAUGCCCUUGGCAGCGUUAUAAUCUAGUGAUGUUAGAUUAGU [Not much to say about this one] is ____. 101

What measured apparent KD of K4 kissing-loop reporter goes with GUGACCUACUCAGGAUAUCCGCAGUGAUGUUGCGGUUGGCCUGAGCGACAUGAAAAUCUUACUACAGGAGAAGGGAGAGGGUUAC [Leanteti] ? 109

For CUAUCCCGCCGUGUAUGUAGUAUACGGUGCCGAGGACCGGUACGGCCGCCACUCGAUAAGCUUUGUCGGAGUGAUGUUCCGACCG [Soleesen] , what is its reported apparent KD of K4 kissing-loop reporter? 213

Would you mind telling me what apparent KD of K4 kissing-loop reporter value was observed for AAGAGCUAGGCGGCCGCCACUAGUUGUGAACACAUACAAGCCAGUGAUGUUGGUAUGGUGGACGGUAGGACCGGGCCUAGCUGAA [Exclusion - Tryptophan B (Freestyle 16)] ? 224

Item AAGUCACAGGCAGGAUAUGCUUAGUAUUAAGGCCAUAUAUACGUAUAGAGUGAUGUUUUGUACCAGGCAGAAGGGCUACAUCCGU [FMN B Excl V4 (+U)] has what recorded apparent KD of K4 kissing-loop reporter? 656

Given AAGUGAUGUUGUAGUGAUGUUGUGAUGUUGCAGGAUAUAUAGUGAUGUAGAAGGGUAUGUACUUAUUUUUUUUUUGAGUUUUGUU [xgghzrmullin] , state its recorded apparent KD of K4 kissing-loop reporter. 60.2

====

- System: MS2 coat protein
- TEST DESCRIPTION: apparent KD of MS2 coat protein; designed switch direction (-1 OFF switch, 1 ON switch): -1; higher = weaker reporter binding
- RECORDED CONDITIONS: input ligand: none
Label criterion not met if apparent KD of MS2 coat protein falls below 40 nM; label criterion met in every other case.

Illustrative cases are given below, each with its answer.
RECORD SEQUENCE | CLASS NAME
ACAUGUCAUCGAGGAUAUUGUACACAUGAGGAUCACCCAUGUAUUCGGUUGCUCUCGCGUGAGUUCGAGAAGGCGAUGUACAUU [Ex NG2 #82] (Eterna round: R96, puzzle: Exclusion NG 2) | criterion not met
GUUUCACAUGAGGAUCACCCAUGUGAGGAUAUGGACUUUUUAGUAAUAAUUGUUGGGUUCAGAAGGCGCGUGAU [JR_Exc1_Sub005] (Eterna round: R97, puzzle: Exclusion 1) | criterion met
GCAGUGACAUGAGGAUCACCCAUGUGGAACUCGUGAAUAAGCGAGGAUAUCUCAAGAUAUCAAAGAGAGAAGGCGUACACUGCA [Diorso] (Eterna round: R96, puzzle: Exclusion NG 3) | criterion met

Tell me whether apparent KD of MS2 coat protein is at least 40 nM here: GGAAGGCGAGGAUAUGCAAUAAUACACUAAUUAAUGUGAAAACAUGAGGAUCACCCAUGUAGAAGGCGCGAGAA [AK-MS2ROC-r4-exclusion2-5] (Eterna round: R97, puzzle: Exclusion 2) criterion not met

Is it the case that UGCCUAAGAGGAUAUACAUAGAAAUAGAUUCAUGUAAAACUACAUGAGGAUCACCCAUGUAGAAGGCUUGGGCU [Mat - Exclusion 2 - JL Mod - D54] (Eterna round: R97, puzzle: Exclusion 2) has apparent KD of MS2 coat protein reaching or exceeding 40 nM? criterion not met

Check if apparent KD of MS2 coat protein >= 40 nM (inclusive). Item: AGGUCACAUGAGGAUCACCCAUGUCAGGAUAUCUACAUUGAAGCCUCGGCUUCAAUGUAGAGAAGGGACAAUUA [E1/6-B2] (Eterna round: R97, puzzle: Exclusion 1) criterion met

Quick check: does GUCGUGUUAGGAUAUGGCAACGGCUAGUAAACUAGUUGUUGUUAGAAGGAACAUGAGGAUCACCCAUGUAUGAC [-24.6, -24.1 kcal, A 30%] (Eterna round: R97, puzzle: Exclusion 4) have apparent KD of MS2 coat protein greater than or equal to 40 nM? criterion not met

====

- Test system: MS2 coat protein
- TEST DESCRIPTION: apparent KD of MS2 coat protein; higher = weaker reporter binding
- RECORDED CONDITIONS: Eterna round: R107; input ligand: theophylline 20 uM
MEASURE NAME: apparent KD of MS2 coat protein (nM)
Output spec: scalar in nM, unitless text.

Please review the following examples before continuing.
RECORD SEQUENCE | TEST SYSTEM | RECORDED MEASUREMENT
ACCUACACGGAGACGUGUAGGAGUAAUGAUACCAGCAUGGAGACAUGCCCUUGGCAGCGUUACAUGAGGAUCACCCAUGUAGUGC [ETHA #5] | MS2 coat protein | 14.2
AGCCGUACGUACGGAAACGUACGUACGGCACGAGGACCGGUACGGCCGCCACUCGCCCACAUGAGGAUCACCCAUGUAGUGGGUG [The One Line] | MS2 coat protein | 58.2
UGGUGUAGGGUAAAUAGGCUGAGUACAGAAGGAGCGCGAAUAAACGCAGGUAGGUCGCUGGACACAUGAGGAUCACCCAUGUUGA [Same State Arginine A GF 29] | MS2 coat protein | 31.9

Recorded apparent KD of MS2 coat protein of UAUAUAGAAGGAAGUCAUAUAGAUGCAGAAGGAGCGUAGGAAACUACAGGUAGGUCGCUGAGGUACAUGAGGAUCACCCAUGUAG [SSArg A #15 Slice of Pi] , please. 44.7

Recorded apparent KD of MS2 coat protein of UGUAUGUGAUCUGAUACCAGAGUGACGCGAAAGCGACCUGAGGAUCACCCUGGUAAAUAACUCCCUUGGCAGCAGAUCGCAUACU , please. 36.6
